Biological target: Jak2 (Homo sapiens, UniProt O60674)
Sequence (O60674 whole entry, species assumed): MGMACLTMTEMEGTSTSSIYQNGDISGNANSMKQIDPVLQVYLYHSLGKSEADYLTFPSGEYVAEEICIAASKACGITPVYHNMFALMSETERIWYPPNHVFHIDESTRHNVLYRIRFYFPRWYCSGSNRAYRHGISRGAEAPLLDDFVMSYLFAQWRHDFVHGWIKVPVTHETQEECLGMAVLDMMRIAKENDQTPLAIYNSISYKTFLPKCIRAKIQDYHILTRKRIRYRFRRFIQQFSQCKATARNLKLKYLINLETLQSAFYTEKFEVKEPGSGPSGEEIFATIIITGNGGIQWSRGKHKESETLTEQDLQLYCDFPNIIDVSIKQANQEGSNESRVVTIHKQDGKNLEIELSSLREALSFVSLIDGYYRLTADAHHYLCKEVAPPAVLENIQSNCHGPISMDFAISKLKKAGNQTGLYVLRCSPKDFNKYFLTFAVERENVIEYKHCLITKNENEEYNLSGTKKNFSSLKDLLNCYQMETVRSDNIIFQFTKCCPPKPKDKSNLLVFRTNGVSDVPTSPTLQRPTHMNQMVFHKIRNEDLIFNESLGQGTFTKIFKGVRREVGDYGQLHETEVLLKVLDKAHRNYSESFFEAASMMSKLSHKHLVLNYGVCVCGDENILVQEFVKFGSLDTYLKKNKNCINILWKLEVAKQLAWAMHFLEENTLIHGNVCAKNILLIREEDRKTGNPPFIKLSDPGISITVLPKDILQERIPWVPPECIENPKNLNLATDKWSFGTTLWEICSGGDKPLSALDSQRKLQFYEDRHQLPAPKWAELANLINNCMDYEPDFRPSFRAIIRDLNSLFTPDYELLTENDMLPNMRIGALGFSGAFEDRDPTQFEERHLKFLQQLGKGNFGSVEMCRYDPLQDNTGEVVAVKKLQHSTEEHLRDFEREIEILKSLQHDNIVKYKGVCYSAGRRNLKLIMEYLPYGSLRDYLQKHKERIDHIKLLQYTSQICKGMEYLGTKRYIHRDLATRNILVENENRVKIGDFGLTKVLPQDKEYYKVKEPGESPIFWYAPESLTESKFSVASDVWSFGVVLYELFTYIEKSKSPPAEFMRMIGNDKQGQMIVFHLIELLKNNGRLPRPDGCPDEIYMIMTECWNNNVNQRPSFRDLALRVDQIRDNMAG
quantityKind: IC50

Return reported IC50; argument: CC/C(=C(/CC)c1ccc(O)c(CN(CC)CC)c1)c1ccc(O)c(CN(CC)CC)c1
~50 nM
